Just for reference, patent US9657022B2 is where these values come from.

# system-tested: Class A beta-lactamase SHV 18 (K. pneumoniae ATCC 700603) (Klebsiella pneumoniae, UniProt P0AD64, E235K/G234A/I4F/R39S)
# Sequence (P0AD64 whole entry I4F/R39S/G234A/E235K): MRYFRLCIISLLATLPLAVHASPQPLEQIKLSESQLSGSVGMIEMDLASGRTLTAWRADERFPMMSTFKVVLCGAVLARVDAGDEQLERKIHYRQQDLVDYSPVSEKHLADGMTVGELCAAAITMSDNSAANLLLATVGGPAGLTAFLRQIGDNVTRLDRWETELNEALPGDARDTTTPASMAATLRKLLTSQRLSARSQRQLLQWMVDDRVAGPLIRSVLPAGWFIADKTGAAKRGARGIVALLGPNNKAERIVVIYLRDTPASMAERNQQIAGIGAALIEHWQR
# procedure-text: Beta-lactamase enzyme inhibition (Nitrocefin, crude enzyme)
# Type: biochemical
# conditions: Beta-lactamase enzyme inhibition IC50, Class A, K. pneumoniae ATCC 700603 (SHV 18)
Each item that follows carries a reported IC50.
readout: IC50 (nM)

O=C(CC1CNCCN1)NNC(=O)[C@@H]1CC[C@@H]2CN1C(=O)N2OS(=O)(=O)O (mixture of isomers) | 67
O=C(C[C@@H]1CCCCN1)NNC(=O)[C@@H]1CC[C@@H]2CN1C(=O)N2OS(=O)(=O)O | 74
O=C(CC1CNC1)NNC(=O)[C@@H]1CC[C@@H]2CN1C(=O)N2OS(=O)(=O)O | 97
O=C(C[C@@H]1CCCNC1)NNC(=O)[C@@H]1CC[C@@H]2CN1C(=O)N2OS(=O)(=O)O | 160
O=C(C[C@H]1CCCCN1)NNC(=O)[C@@H]1CC[C@@H]2CN1C(=O)N2OS(=O)(=O)O | 170
O=C(CC1CCNCC1)NNC(=O)[C@@H]1CC[C@@H]2CN1C(=O)N2OS(=O)(=O)O | 60
